tested on: H460 cells; test: MTT assay, proliferation of H460 cells; type: cell-based; settings: NCI-H460, 48 h, H460 human lung cancer cells, read-out: In vitro cytotoxicity (IC50) H460
// reported IC50 for each item listed
metric: IC50

[[record]]
compound = "Cc1nc(C(=O)NCCCCNC(=O)c2ccccc2O)cc2c1[nH]c1ccccc12 [8e]"
experimental_system = "H460 cells"
metric = "IC50"
result = "11.9 µM"

[[record]]
compound = "Cc1ccccc1C(=O)NCCCCCNC(=O)c1cc2c([nH]c3ccccc32)c(C)n1 [7h]"
experimental_system = "H460 cells"
metric = "IC50"
result = "13.2 µM"

[[record]]
compound = "Cc1ccccc1C(=O)NCCCNC(=O)c1cc2c([nH]c3ccccc32)c(C)n1 [7b]"
experimental_system = "H460 cells"
metric = "IC50"
result = "30.5 µM"

[[record]]
compound = "COc1ccc(-c2nc(C(=O)NCCCCCNC(=O)c3ccccc3C)cc3c2[nH]c2ccccc23)cc1 [7i]"
experimental_system = "H460 cells"
metric = "IC50"
result = "27.5 µM"

[[record]]
compound = "Cc1ccccc1C(=O)NCCCCNC(=O)c1cc2c(cn1)[nH]c1ccccc12 [7d]"
experimental_system = "H460 cells"
metric = "IC50"
result = "23.2 µM"

[[record]]
compound = "Cc1nc(C(=O)NCCCCCNC(=O)c2ccccc2O)cc2c1[nH]c1ccccc12 [8h]"
experimental_system = "H460 cells"
metric = "IC50"
result = "13.1 µM"

[[record]]
compound = "COc1ccc(-c2nc(C(=O)NCCCCCCNC(=O)c3ccccc3C)cc3c2[nH]c2ccccc23)cc1 [7l]"
experimental_system = "H460 cells"
metric = "IC50"
result = "> 50 µM"

[[record]]
compound = "Cc1ccccc1C(=O)NCCCCNC(=O)c1cc2c([nH]c3ccccc32)c(C)n1 [7e]"
experimental_system = "H460 cells"
metric = "IC50"
result = "20.1 µM"

[[record]]
compound = "COc1ccc(-c2nc(C(=O)NCCCCNC(=O)c3ccccc3O)cc3c2[nH]c2ccccc23)cc1 [8f]"
experimental_system = "H460 cells"
metric = "IC50"
result = "22.8 µM"

[[record]]
compound = "Cc1nc(C(=O)NCCCNC(=O)c2ccccc2O)cc2c1[nH]c1ccccc12 [8b]"
experimental_system = "H460 cells"
metric = "IC50"
result = "22.2 µM"

[[record]]
compound = "O=C(NCCCCCNC(=O)c1ccccc1O)c1cc2c(cn1)[nH]c1ccccc12 [8g]"
experimental_system = "H460 cells"
metric = "IC50"
result = "12.5 µM"

[[record]]
compound = "Cc1ccccc1C(=O)NCCCCCNC(=O)c1cc2c(cn1)[nH]c1ccccc12 [7g]"
experimental_system = "H460 cells"
metric = "IC50"
result = "19.4 µM"

[[record]]
compound = "Cc1ccccc1C(=O)NCCCCCCNC(=O)c1cc2c(cn1)[nH]c1ccccc12 [7j]"
experimental_system = "H460 cells"
metric = "IC50"
result = "15.3 µM"

[[record]]
compound = "COc1ccc(-c2nc(C(=O)NCCCCCCNC(=O)c3ccccc3O)cc3c2[nH]c2ccccc23)cc1 [8l]"
experimental_system = "H460 cells"
metric = "IC50"
result = "> 50 µM"

[[record]]
compound = "COc1ccc(-c2nc(C(=O)NCCCNC(=O)c3ccccc3O)cc3c2[nH]c2ccccc23)cc1 [8c]"
experimental_system = "H460 cells"
metric = "IC50"
result = "> 50 µM"

[[record]]
compound = "O=C(NCCCCNC(=O)c1ccccc1O)c1cc2c(cn1)[nH]c1ccccc12 [8d]"
experimental_system = "H460 cells"
metric = "IC50"
result = "15.2 µM"

[[record]]
compound = "Cc1ccccc1C(=O)NCCCNC(=O)c1cc2c(cn1)[nH]c1ccccc12 [7a]"
experimental_system = "H460 cells"
metric = "IC50"
result = "31.1 µM"

[[record]]
compound = "Cc1ccccc1C(=O)NCCCCCCNC(=O)c1cc2c([nH]c3ccccc32)c(C)n1 [7k]"
experimental_system = "H460 cells"
metric = "IC50"
result = "14.3 µM"

